Test: protein stability index of a GFP-peptide fusion (GPS, HEK-293T) (PSI 1-6); higher = more stable;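 further: 24-mer peptide tiles fused after GFP, lentivirally expressed, FACS-sorted into six equal bins by GFP/DsRed ratio, decoded by Illumina sequencing, PSI is the read-weighted mean bin number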
Conditions: treatment: MLN4924 1 uM, 8 h; c terminus: native
Tick true if protein stability index is 3 or greater. Tick false if protein stability index is less than 3.

Field: example entries. Status: answers known.
residues	classLabel
QEQLLECNKLCGRGQSRQLSPET [SLC2A12]	true
IETLIRDMLLSGSSFNWPYMAIQ [NR2F2]	false

Then this sequence:
Ask: Has ESGLRSLRLFQKLEENGDLYLAV [WDR41] a recorded protein stability index greater than or equal to 3?
Reply: false

* * *

Test: protein stability index of a GFP-peptide fusion (GPS, HEK-293T) (PSI 1-6); higher = more stable
Conditions: treatment: DMSO; c terminus: a fixed tail appended
Tick Yes if protein stability index is 3 or greater. Tick No if protein stability index is less than 3.

Field: example entries. Status: answers known.
residues	classLabel
KGEVPKGSCEDEPMDSTMDDAVAG [ATE1]	Yes
RRLQEVLGVQTGGPGGRRAGEPGH [DYRK1B]	Yes
YFDPLRNEYFFDRNRPSFDAILYY [KCNA3]	No

Ask: Has VKSKAKKTVDKHSDEYKIRRERNN [CEBPB] a recorded protein stability index greater than or equal to 3?
Reply: Yes

Ask: Has EEEKKKMEESKAKFENLCKLMKEI [HSP90AB1] a recorded protein stability index greater than or equal to 3?
Reply: Yes

Ask: Has ESGTKGLFAGFLPRIIKAAPSCAI [SLC25A39] a recorded protein stability index greater than or equal to 3?
Reply: No

Ask: Has DSTMRILSNLVQHILKKYYGNGMR [RTP4] a recorded protein stability index greater than or equal to 3?
Reply: No

Ask: Has PDTGDNARLTYSIVGNQVQGAPAS [PCDHGC5] a recorded protein stability index greater than or equal to 3?
Reply: Yes

Ask: Has KMLLMYCAKMEKDGYGMTPLLSAS [FEM1C] a recorded protein stability index greater than or equal to 3?
Reply: No

Ask: Has QMPQGNPLLLSHTLQELLARDTVQ [SNX8] a recorded protein stability index greater than or equal to 3?
Reply: Yes

Ask: Has VCSDKRIPGFKFDNSLINQIENLN [LOXL2] a recorded protein stability index greater than or equal to 3?
Reply: No

Ask: Has PPAELKAEPGFEPADCKRKEEAGA [CEBPB] a recorded protein stability index greater than or equal to 3?
Reply: Yes

Ask: Has EERAAPVLSCEAATQTERRLDLAA [FAM189A2] a recorded protein stability index greater than or equal to 3?
Reply: Yes
